- Tested on: HEK-293T
- method.summary: Multiplex assay against HEK293T
- Format: toxicity, cell-based
- setup.conditions: human, 12 h, 10 µM, compound concentration 10 uM, replicate 2
molecules and their reported Population Fragmented Nuclei (%)
Could you give me the number in %? Just the number is fine.

Guide cases for Population Fragmented Nuclei (%), answers given:
CN1C(=O)[C@@H](NC(=O)c2cc3ccccc3[nH]2)N=C(c2ccccc2)c2ccccc21 [DEVAZEPIDE] : 4
CC(C)c1cc(Nc2nc(N3CCC[C@H](N)C3)ncc2C(N)=O)cc(C(C)C)n1 : 7
NC(=O)c1ccc2nc(-c3ccc(C4(N)CCC4)cc3)c(-c3ccccc3)n2n1 [BAY-1125976] : 7
Oc1cccc(-c2nc(N3CCOCC3)c3oc4ncccc4c3n2)c1 [PI-103] : 7
CCOc1ccn(-c2ccc(F)cc2)c(=O)c1C(=O)Nc1ccc(Oc2ccnc(N)c2Cl)c(F)c1 [BMS-777607] : 9

Would you kindly share the measured Population Fragmented Nuclei (%) for CC(Cc1ccc(O)c(O)c1)C(C)Cc1ccc(O)c(O)c1 (stereo not given) [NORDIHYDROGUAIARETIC ACID] ?
6

Would you kindly share the measured Population Fragmented Nuclei (%) for `CCOC(=O)CCNc1cc(N2CCc3ccccc3CC2)nc(-c2ccccn2)n1` ?
3

Would you kindly share the measured Population Fragmented Nuclei (%) for `CN(c1cc(C(F)(F)F)nc(OCCC(=O)O)n1)c1cccc2c1CCC2` ?
8

Would you kindly share the measured Population Fragmented Nuclei (%) for `Cc1c(P(=S)(c2ccccc2)c2ccccc2)n2ccccc2[n+]1C/C=C/c1ccccc1.[Br-]` ?
9

Would you kindly share the measured Population Fragmented Nuclei (%) for CC(C)[C@H](CO)Nc1nc(Nc2cccc(Cl)c2)c2ncn(C(C)C)c2n1 [PURVALANOLA] ?
6

* * *

- Test system: Fibroblast
- method.summary: Multiplex assay against human fibroblast
- Format: toxicity, cell-based
- setup.conditions: 24 h, 1 µM, compound concentration 1 uM, replicate 1
Mark rule met only when Population Apoptotic (%) stays strictly below 70%. Values equal to the cut-off are rule not met.

Study these solved cases before continuing.
CC(C)c1cc(Nc2nc(N3CCC[C@H](N)C3)ncc2C(N)=O)cc(C(C)C)n1 : rule met
Cl.NC[C@@H]1O[C@H](C23CC4CC(CC(C4)C2)C3)Cc2c1ccc(O)c2O : rule met
CCOC(=O)CCNc1cc(N2CCc3ccccc3CC2)nc(-c2ccccn2)n1 : rule not met
CCCCN(CC)c1nc(C)nc2c1c(C)cn2-c1c(C)cc(C)cc1C.Cl : rule met
N#Cc1cccc(C(=O)Nc2cc(-c3ccccc3)nn2-c2ccccc2)c1 : rule met
NC(=O)c1ccc2nc(-c3ccc(C4(N)CCC4)cc3)c(-c3ccccc3)n2n1 [BAY-1125976] : rule not met
Cl.Cn1c2c(c3ccc(Cl)c(Cl)c31)C(C#N)C1(CCNCC1)NC2=O (stereo unspecified) : rule met
Cc1ccc(S(=O)(=O)NC2c3ccccc3Oc3ccccc32)cc1 : rule met
CCOc1ccn(-c2ccc(F)cc2)c(=O)c1C(=O)Nc1ccc(Oc2ccnc(N)c2Cl)c(F)c1 [BMS-777607] : rule not met

Now consider a different compound.
Regarding `CC(/C=C1\SC(=S)N(CCCC(=O)Nc2ccc(C(=O)O)c(O)c2)C1=O)=C\c1ccccc1` , kindly confirm whether its Population Apoptotic (%) is beneath 70%.
rule met

* * *

- Test system: Fibroblast
- method.summary: Multiplex assay against human fibroblast
- Assay type: toxicity, cell-based
- setup.conditions: 48 h, 10 µM, compound concentration 10 uM, replicate 2
experimental.readout: Population Fragmented Nuclei (%)
Don't forget the unit after the value.

Would you kindly share the measured Population Fragmented Nuclei (%) for `N#Cc1cccc(C(=O)Nc2cc(-c3ccccc3)nn2-c2ccccc2)c1` ?
45%

Would you kindly share the measured Population Fragmented Nuclei (%) for `Cc1ccc(S(=O)(=O)NC2c3ccccc3Oc3ccccc32)cc1` ?
20%

Would you kindly share the measured Population Fragmented Nuclei (%) for `C=CC(=O)Nc1cc(-n2c(=O)ccc3cnc4ccc(-c5ccc(NS(C)(=O)=O)cc5)cc4c32)ccc1C` ?
56%

Would you kindly share the measured Population Fragmented Nuclei (%) for `CC(/C=C1\SC(=S)N(CCCC(=O)Nc2ccc(C(=O)O)c(O)c2)C1=O)=C\c1ccccc1` ?
23%

Would you kindly share the measured Population Fragmented Nuclei (%) for `C[C@@H](Oc1cc(-n2cnc3ccc(CN4CCN(C)CC4)cc32)sc1C(N)=O)c1ccccc1C(F)(F)F` ?
39%

* * *

- Test system: U2OS
- method.summary: Multiplex assay against U2OS
- Type: toxicity, cell-based
- setup.conditions: human, 12 h, 10 µM, compound concentration 10 uM, replicate 2
experimental.readout: Population Membrane Permeable-Phenotype (%)
Could you give me the number in %? Just the number is fine.

Guide cases for Population Membrane Permeable-Phenotype (%), answers given:
C=CC(=O)Nc1cc(-n2c(=O)ccc3cnc4ccc(-c5ccc(NS(C)(=O)=O)cc5)cc4c32)ccc1C : 12
Cc1c(Nc2ccc(S(=O)(=O)N3CCN(C)CC3)cc2F)nc2ccc(Nc3cnn(C4CC4)c3)cn2c1=O : 9
CC[C@@H]1C(=O)N(C)c2cnc(Nc3ccc(C(=O)NC4CCN(C)CC4)cc3OC)nc2N1C1CCCC1 [BI-2536] : 51
Cl.NC[C@@H]1O[C@H](C23CC4CC(CC(C4)C2)C3)Cc2c1ccc(O)c2O : 9
N#CCNC(=O)c1ccc(-c2ccnc(Nc3ccc(N4CCOCC4)cc3)n2)cc1 [MOMELOTINIB] : 0

Lab note: need Population Membrane Permeable-Phenotype (%) for Cl.Cn1c2c(c3ccc(Cl)c(Cl)c31)C(C#N)C1(CCNCC1)NC2=O (stereo not drawn) on U2OS, anyone have it?
36

Lab note: need Population Membrane Permeable-Phenotype (%) for `CC(/C=C1\SC(=S)N(CCCC(=O)Nc2ccc(C(=O)O)c(O)c2)C1=O)=C\c1ccccc1` on U2OS, anyone have it?
6

* * *

- Test system: U2OS
- method.summary: Multiplex assay against U2OS
- Format: toxicity, cell-based
- setup.conditions: human, 48 h, 10 µM, compound concentration 10 uM, replicate 2
experimental.readout: Population Pyknosed Nuclei (%)
Could you give me the number in %? Just the number is fine.

Guide cases for Population Pyknosed Nuclei (%), answers given:
Cc1c(P(=S)(c2ccccc2)c2ccccc2)n2ccccc2[n+]1C/C=C/c1ccccc1.[Br-] : 6
Cl.NC[C@@H]1O[C@H](C23CC4CC(CC(C4)C2)C3)Cc2c1ccc(O)c2O : 22
c1ccc(-c2oc3ncnc(NC[C@@H]4CCCO4)c3c2-c2ccccc2)cc1 : 12
N#CCNC(=O)c1ccc(-c2ccnc(Nc3ccc(N4CCOCC4)cc3)n2)cc1 : 22
N#Cc1cccc(C(=O)Nc2cc(-c3ccccc3)nn2-c2ccccc2)c1 : 26

Would you kindly share the measured Population Pyknosed Nuclei (%) for CCCCCNC(=N)N/N=C/c1c[nH]c2ccc(OC)cc12.O=C(O)/C=C\C(=O)O [TEGASEROD MALEATE] ?
11

Would you kindly share the measured Population Pyknosed Nuclei (%) for `CCCCN(CC)c1nc(C)nc2c1c(C)cn2-c1c(C)cc(C)cc1C.Cl` ?
18

Would you kindly share the measured Population Pyknosed Nuclei (%) for CC(Cc1ccc(O)c(O)c1)C(C)Cc1ccc(O)c(O)c1 (centres undefined) [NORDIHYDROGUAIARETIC ACID] ?
6

Would you kindly share the measured Population Pyknosed Nuclei (%) for `C=CC(=O)Nc1cc(-n2c(=O)ccc3cnc4ccc(-c5ccc(NS(C)(=O)=O)cc5)cc4c32)ccc1C` ?
45

* * *

- Tested on: U2OS
- method.summary: Multiplex assay against U2OS
- Type: toxicity, cell-based
- setup.conditions: human, 12 h, 10 µM, compound concentration 10 uM, replicate 2
molecules and their reported Population Normal (%)
Could you give me the number in %? Just the number is fine.

Would you kindly share the measured Population Normal (%) for `N#CCNC(=O)c1ccc(-c2ccnc(Nc3ccc(N4CCOCC4)cc3)n2)cc1` ?
89

Would you kindly share the measured Population Normal (%) for `Cc1c(P(=S)(c2ccccc2)c2ccccc2)n2ccccc2[n+]1C/C=C/c1ccccc1.[Br-]` ?
91

Would you kindly share the measured Population Normal (%) for `Cc1ccc(S(=O)(=O)NC2c3ccccc3Oc3ccccc32)cc1` ?
93

Would you kindly share the measured Population Normal (%) for `CCOC(=O)CCNc1cc(N2CCc3ccccc3CC2)nc(-c2ccccn2)n1` ?
90

* * *

- Tested on: U2OS
- method.summary: Multiplex assay against U2OS
- Assay type: toxicity, cell-based
- setup.conditions: human, 12 h, 10 µM, compound concentration 10 uM, replicate 2
experimental.readout: Total Cell Count

Guide cases for Total Cell Count, answers given:
CC(C)[C@H](CO)Nc1nc(Nc2cccc(Cl)c2)c2ncn(C(C)C)c2n1 : 66
C=CC(=O)Nc1cc(-n2c(=O)ccc3cnc4ccc(-c5ccc(NS(C)(=O)=O)cc5)cc4c32)ccc1C : 51
Cc1c(P(=S)(c2ccccc2)c2ccccc2)n2ccccc2[n+]1C/C=C/c1ccccc1.[Br-] : 108

Now consider a different molecule.
Would you kindly share the measured Total Cell Count for `CC(/C=C1\SC(=S)N(CCCC(=O)Nc2ccc(C(=O)O)c(O)c2)C1=O)=C\c1ccccc1` ?
88
